FYI, the data here is from patent US20220409629A1.

- Measurement Notes: Liver microsomal stability, rat
- Type: in vitro ADME
- Condition Info: pH 7.4; rat liver microsomes, 0.5 mg/mL protein, 1 μM compound, NADPH; >80% remaining at 45 min denoted >140; read-out: Liver Microsomal Stability: t1/2 (min); rat
Endpoint Label: half-life

// worked examples, half-life included
>>> df
                            compound_smiles  observed_value
0  O=C(N[C@H]1N=C(c2ccccc2)c2cccc(F)c2NC1=O)c1cnn(C2CCOCC2)c1-c1ccc(NC2CC2)nc1F        87.6 min
1  O=C(N[C@H]1N=C(c2ccccc2)c2cccc(F)c2NC1=O)c1cn(C2CCC(F)(F)CC2)nc1-c1ccc(NC2CC2)nc1F         181 min
2  O=C(N[C@H]1N=C(c2ccccc2)c2cccc(F)c2NC1=O)c1cnn(C2CCOCC2)c1-c1ccc(C2CC2)nc1F        73.4 min
3  CC(C)(C)n1cc(C(=O)N[C@H]2N=C(c3ccccc3)c3ccccc3NC2=O)c(-c2ccc(NC3CC3)nc2F)n1        45.2 min
4  O=C(N[C@H]1N=C(c2ccccc2)c2cccc(F)c2NC1=O)c1cnn(C2CCOCC2)c1-c1cc(C2CC2)cnc1F        92.8 min
5  CCNc1ccc(-c2c(C(=O)N[C@H]3N=C(c4ccccc4)c4ccccc4NC3=O)cnn2C2CC2)c(F)n1        37.9 min

Could you tell me half-life for each of these molecules? They are listed below.
1. O=C(N[C@H]1N=C(c2ccccc2)c2ccccc2NC1=O)c1cnn(C2CCOCC2)c1-c1ccc(NC2CC2)nc1F
2. CCn1ncc(C(=O)N[C@H]2N=C(c3ccccc3)c3cccc(F)c3NC2=O)c1-c1ncc(NC(C)C)cc1F

1: 116 min; 2: 318 min

* * *

Provide the recorded half-life for the entries that follow.
- Measurement Notes: Liver microsomal stability, human
- Type: in vitro ADME
- Condition Info: pH 7.4; human liver microsomes, 0.5 mg/mL protein, 1 μM compound, NADPH; >80% remaining at 45 min denoted >140; read-out: Liver Microsomal Stability: t1/2 (min); human
One number for each entry, in min.

In [3]: df
Out[3]:
                            compound_smiles  endpoint_label  observed_value
0  O=C(N[C@H]1N=C(c2ccccc2)c2ccccc2NC1=O)c1cnn(C2CCOCC2)c1-c1ccc(NC2CC2)nc1F       half-life            83.1
1  CCNc1cnc(-c2c(C(=O)N[C@H]3N=C(c4ccccc4)c4ccccc4NC3=O)cnn2CC)c(F)c1       half-life              62
2  O=C(N[C@H]1N=C(c2ccccc2)c2cccc(F)c2NC1=O)c1cnn(C2CCOCC2)c1-c1cc(C2CC2)cnc1F       half-life             171
3  O=C(N[C@H]1N=C(c2ccccc2)c2cccc(F)c2NC1=O)c1cnn(C2COC2)c1-c1ccc(NC2CC2)nc1F       half-life             154
4  CCn1ncc(C(=O)N[C@H]2N=C(c3ccccc3)c3cccc(F)c3NC2=O)c1-c1ncc(NC2CC2)cc1F       half-life             193
5  O=C(N[C@H]1N=C(c2ccccc2)c2ccccc2NC1=O)c1cnn(C2CC2)c1-c1ccc(NC2CC2)nc1F       half-life            72.3

Could you tell me half-life for each of these molecules? They are listed below.
1. CC(C)(C)n1cc(C(=O)N[C@H]2N=C(c3ccccc3)c3ccccc3NC2=O)c(-c2ccc(NC3CC3)nc2F)n1
2. CCn1cc(C(=O)N[C@H]2N=C(c3ccccc3)c3cccc(F)c3NC2=O)c(-c2ccc(NC3CC3)nc2F)n1
3. CCn1ncc(C(=O)N[C@H]2N=C(c3ccccc3)c3ccccc3NC2=O)c1-c1ccc(NC)nc1F
4. CCn1ncc(C(=O)N[C@H]2N=C(c3ccccc3)c3ccccc3NC2=O)c1-c1ncc(NC2CC2)cc1F
5. CCOc1nn(CC)c(-c2ccccc2F)c1C(=O)N[C@H]1N=C(c2ccccc2)c2cccc(F)c2NC1=O
6. CC(C)Nc1ccc(-c2c(C(=O)N[C@H]3N=C(c4ccccc4)c4cccc(F)c4NC3=O)cnn2C2CCOCC2)c(F)n1

1: 73.9; 2: 84.9; 3: 48.1; 4: 97; 5: 41.3; 6: 287

I have this molecule here, `CC(C)n1ncc(C(=O)N[C@H]2N=C(c3ccccc3)c3ccccc3NC2=O)c1-c1ccc(NC2CC2)nc1F` , and I need its recorded half-life.
50.6

* * *

- Measurement Notes: Cell cytotoxicity CC50
- Assay type: cell-based
- Condition Info: human; mean of at least two experiments
Endpoint Label: CC50 at 2 days

I have this molecule here, `CCn1ncc(C(=O)N[C@H]2N=C(c3ccccc3)c3ccccc3NC2=O)c1-c1ccc(NC(C)C)nc1F` , and I need its recorded CC50 at 2 days.
> 25 µM

* * *

- Measurement Notes: Liver hepatocyte stability, rat
- Format: in vitro ADME
- Condition Info: rat hepatocytes, 3 μM compound, 60 min, >80% remaining at 60 min denoted >186, read-out: Liver Hepatocyte Stability: t1/2 (min)
- Description: Cryopreserved pooled hepatocytes were purchased from a reputable commercial supplier and stored in liquid nitrogen prior to use. […] Following protein precipitation, the sample supernatants were combined in cassettes of up to 4 compounds and analysed using generic LC-MS/MS conditions. From a plot of ln peak area ratio (compound peak area/internal standard peak area) against time, the gradient of the line is determined. Subsequently, half-life (t1/2) and intrinsic clearance (CLint) were calculated.
Quick rule for you: half-life under 200 min gets met, anything else gets not met.

Past entries and their recorded results:
>>> df
                            compound_smiles  answer_label
0  O=C(N[C@H]1N=C(c2ccccc2)c2cccc(F)c2NC1=O)c1cnn(C2CCOCC2)c1-c1ccc(NC2CC2)nc1F       not met
1  CCNc1ccc(-c2c(C(=O)N[C@H]3N=C(c4ccccc4)c4ccccc4NC3=O)cnn2C2CCOCC2)c(F)n1           met
2  CCn1ncc(C(=O)N[C@H]2N=C(c3ccccc3)c3cccc(F)c3NC2=O)c1-c1ccc(NC2CC2)nc1F           met

Say whether its half-life is strictly beneath 200 min. Entry: `CC(C)(C)n1cc(C(=O)N[C@H]2N=C(c3ccccc3)c3cccc(F)c3NC2=O)c(-c2ccc(NC3CC3)nc2F)n1`
met

Now try `O=C(N[C@H]1N=C(c2ccccc2)c2cccc(F)c2NC1=O)c1cnn(C2COC2)c1-c1ccc(NC2CC2)nc1F` .
met

Now try `CCNc1ccc(-c2c(C(=O)N[C@H]3N=C(c4ccccc4)c4cccc(F)c4NC3=O)cnn2C2CCOCC2)c(F)n1` .
not met

Now try `CCn1ncc(C(=O)N[C@H]2N=C(c3ccccc3)c3ccccc3NC2=O)c1-c1ccc(NC2CC2)nc1F` .
met

* * *

- Measurement Notes: Liver microsomal stability, dog
- Format: in vitro ADME
- Condition Info: pH 7.4; dog liver microsomes, 0.5 mg/mL protein, 1 μM compound, NADPH; >80% remaining at 45 min denoted >140; read-out: Liver Microsomal Stability: t1/2 (min); dog
Provide the recorded half-life for the entries that follow.
Answers are plain numbers, in min.

// worked examples, half-life included
                            compound_smiles  observed_value
0  O=C(N[C@H]1N=C(c2ccccc2)c2ccccc2NC1=O)c1cnn(C2CC2)c1-c1ccc(NC2CC2)nc1F            57.7
1  CCn1ncc(C(=O)N[C@H]2N=C(c3ccccc3)c3cccc(F)c3NC2=O)c1-c1ccc(NC2CC2)nc1F              24
2  O=C(N[C@H]1N=C(c2ccccc2)c2cccc(F)c2NC1=O)c1cnn(C2CCOCC2)c1-c1ccc(C2CC2)cc1F              90

Could you tell me half-life for each of these molecules? They are listed below.
1. CCn1ncc(C(=O)N[C@H]2N=C(c3ccccc3)c3ccccc3NC2=O)c1-c1ccc(NC(C)C)cc1F
2. CCCNc1ccc(-c2nn(CC)cc2C(=O)N[C@H]2N=C(c3ccccc3)c3ccccc3NC2=O)c(F)n1
3. O=C(N[C@H]1N=C(c2ccccc2)c2cccc(F)c2NC1=O)c1cn(CC(F)(F)F)nc1-c1ccc(NC2CC2)nc1F

[89.1, 12.6, 81]

I have this molecule here, `CCn1ncc(C(=O)N[C@H]2N=C(c3ccccc3)c3ccccc3NC2=O)c1-c1ccc(NC2CC2)nc1F` , and I need its recorded half-life.
14.4

* * *

- Measurement Notes: Rat pharmacokinetics in vivo
- Condition Info: rat, in vivo; male Sprague Dawley rats, IV 1 mg/kg
Provide the recorded clearance for the entries that follow.
Answers are plain numbers, in mL/min/kg.

                            compound_smiles  result_unit  observed_value
0  CC(C)Nc1ccc(-c2c(C(=O)N[C@H]3N=C(c4ccccc4)c4cccc(F)c4NC3=O)cnn2C2CCOCC2)c(F)n1    mL/min/kg              10
1  O=C(N[C@H]1N=C(c2ccccc2)c2cccc(F)c2NC1=O)c1cn(C2CCOCC2)nc1-c1ccc(NC2CC2)nc1F    mL/min/kg            17.7
2  CCn1cc(C(=O)N[C@H]2N=C(c3ccccc3)c3cccc(F)c3NC2=O)c(-c2ccc(NC3CC3)nc2F)n1    mL/min/kg             8.2

Could you tell me clearance for each of these compounds? They are listed below.
1. CCNc1ccc(-c2c(C(=O)N[C@H]3N=C(c4ccccc4)c4cccc(F)c4NC3=O)cnn2C2CCOCC2)c(F)n1
2. O=C(N[C@H]1N=C(c2ccccc2)c2cccc(F)c2NC1=O)c1cnn(C2CCOCC2)c1-c1ccc(NC2CC2)nc1F
3. CCn1ncc(C(=O)N[C@H]2N=C(c3ccccc3)c3cccc(F)c3NC2=O)c1-c1ccc(NC2CC2)nc1F

[15, 18.6, 13.9]

Could you tell me clearance for each of these compounds? They are listed below.
1. CCn1ncc(C(=O)N[C@H]2N=C(c3ccccc3)c3ccccc3NC2=O)c1-c1ccc(NC(C)C)nc1F
2. CC(C)(C)n1cc(C(=O)N[C@H]2N=C(c3ccccc3)c3cccc(F)c3NC2=O)c(-c2ccc(NC3CC3)nc2F)n1
3. CCn1ncc(C(=O)N[C@H]2N=C(c3ccccc3)c3ccccc3NC2=O)c1-c1ccc(NC2CC2)nc1F
4. CCn1cc(C(=O)N[C@H]2N=C(c3ccccc3)c3ccccc3NC2=O)c(-c2ccc(NC3CC3)nc2F)n1
5. O=C(N[C@H]1N=C(c2ccccc2)c2cccc(F)c2NC1=O)c1cnn(C2COC2)c1-c1ccc(NC2CC2)nc1F
6. CC(C)Nc1ccc(-c2c(C(=O)N[C@H]3N=C(c4ccccc4)c4ccccc4NC3=O)cnn2C2CCOCC2)c(F)n1
7. O=C(N[C@H]1N=C(c2ccccc2)c2ccccc2NC1=O)c1cnn(C2CCOCC2)c1-c1ccc(NC2CC2)nc1F

13.3
11.2
22.7
15.9
14.3
12.2
32.9
